src = the supplement of paper PMC10567573

Measured protein stability index of individual entries
B1: NCK2 (parent)
chain: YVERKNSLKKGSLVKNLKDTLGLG

# Variants of: B1
# Run description: protein stability index of a GFP-peptide fusion (GPS, HEK-293T) (PSI 1-6); higher = more stable;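 note: lentivirally expressed fusions sorted by FACS into six bins by GFP to DsRed ratio, PSI derived from sequencing read proportions per bin multiplied by bin number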
# Protocol conditions: c terminus: a fixed tail appended
Readout label: protein stability index

# Variant key, Reported
records = [
    ("T20V", 1.97),
    ("T20D", 2.3),
    ("V2Y", 3.01),
    ("K5D", 2.26),
    ("Y1C", 3.41),
    ("Y1Q", 4.01),
    ("N16K", 2.04),
    ("L13W", 2.04),
    ("L8G", 3.27),
    ("D19H", 1.47),
    ("D19A", 2),
    ("V14A", 2.53),
    ("G24M", 2.09),
    ("V2E", 4.17),
    ("V2F", 2.44),
    ("L17D", 2.92),
    ("L21K", 2.32),
    ("L23I", 2.37),
    ("K18E", 2.46),
    ("L21Q", 2.3),
    ("L13F", 1.86),
    ("Y1K", 3.86),
    ("Y1H", 4.01),
    ("K18I", 2.84),
    ("G11W", 1.93),
    ("V14P", 2.3),
    ("S12D", 2.79),
    ("K15N", 2.41),
    ("N6K", 2.67),
    ("N6L", 1.1),
    ("N16W", 1.68),
    ("G22C", 2.01),
    ("K9S", 2.84),
    ("L23F", 2.52),
    ("S12Q", 2.27),
    ("L21M", 2.64),
    ("Y1L", 3.28),
    ("R4M", 1.62),
    ("G11V", 2.42),
    ("E3M", 2.11),
    ("K18W", 1.8),
    ("G11E", 2.72),
    ("K18M", 1.72),
    ("L13C", 1.97),
    ("R4G", 2.19),
    ("K5M", 1.79),
    ("N16I", 2.18),
    ("K10H", 1.82),
    ("S12N", 2.63),
    ("K18Q", 2.48),
    ("S12G", 2.07),
    ("K9Q", 2.32),
    ("K9N", 2.32),
    ("L8I", 2.27),
    ("K5W", 2.57),
    ("Y1D", 4.13),
    ("T20Y", 1.88),
    ("N16C", 2.1),
    ("K9W", 2.37),
    ("V14L", 2.31),
    ("Y1A", 3.59),
    ("G11D", 2.44),
    ("S12M", 1.75),
    ("K15M", 2.47),
    ("Y1F", 1.81),
    ("K10Y", 1.68),
    ("L17M", 2.78),
    ("L8P", 2.8),
    ("N6G", 2.38),
    ("K9R", 2.54),
    ("N16E", 2.73),
    ("K15H", 2.23),
    ("V14D", 2.84),
    ("L17G", 2.88),
    ("G11S", 2.43),
    ("S7W", 3.27),
    ("L21Y", 2.41),
    ("G22S", 2.13),
    ("S12I", 2.46),
    ("E3A", 1.66),
    ("V14G", 2.04),
    ("K5C", 1.75),
    ("L17A", 2.62),
    ("K15F", 1.69),
    ("S12P", 2.31),
    ("K15W", 1.98),
    ("L17F", 1.87),
    ("R4F", 1.52),
    ("V2D", 3.38),
    ("L23N", 2.9),
    ("L8A", 2.42),
]
